Test: Pharmacokinetic experiment in Beagle dogs
Format: in vivo, Beagle dog
Settings: dog, plasma, oral capsules, 5 mg/kg, read-out: Cmax
quantity.kind: Cmax (ng/mL)
Numbers only, in ng/mL.

Exercise: Consider the compound CN1CCC(=C(F)c2cccc(NC(=O)c3c(F)cc(F)cc3F)n2)CC1 and give its measured Cmax.
Solution: 32.8

====

Experiment: Pharmacokinetic experiment in Beagle dogs
Type: in vivo, Beagle dog
Details: dog, plasma, oral capsules, 5 mg/kg, read-out: Tmax
quantity.kind: Tmax (h)
Answers are plain numbers, in h.

Exercise: Consider the molecule CN1CCC(=C(F)c2cccc(NC(=O)c3c(F)cc(F)cc3F)n2)CC1 and give its measured Tmax.
Solution: 3.67
